Molecular target: UniProtKB P08246
Sequence (P08246 30-267): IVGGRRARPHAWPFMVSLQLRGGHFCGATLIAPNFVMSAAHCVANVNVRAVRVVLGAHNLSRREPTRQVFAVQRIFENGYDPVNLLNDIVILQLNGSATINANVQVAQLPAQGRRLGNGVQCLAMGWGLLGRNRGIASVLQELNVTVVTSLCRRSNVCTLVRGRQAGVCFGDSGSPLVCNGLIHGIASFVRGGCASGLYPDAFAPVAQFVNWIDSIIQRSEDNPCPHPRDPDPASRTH
Experiment: Elastase inhibition (in vitro)
Type: biochemical
Details: in vitro assay per Cha; did not inhibit elastase
pIC50: −log10 of the molar value.
Observed property: pIC50

stdin: Give pIC50 for CC(C)OC(=O)Nc1cnc(-c2ccccc2)n(CC(=O)N[C@@H](CC(=O)O)C(=O)COc2cc(C(F)(F)F)nn2-c2ccccc2)c1=O
stdout: ≤ 5.00

Where these numbers come from: patent US6407080B2
